target: Casein kinase I isoform delta (Homo sapiens) (UniProt P48730); settings: Compound concentration 20.0 uM, Protein concentration 2.0 uM, Result type QC Liability
Sequence (P48730 whole entry, looked up, canonical isoform): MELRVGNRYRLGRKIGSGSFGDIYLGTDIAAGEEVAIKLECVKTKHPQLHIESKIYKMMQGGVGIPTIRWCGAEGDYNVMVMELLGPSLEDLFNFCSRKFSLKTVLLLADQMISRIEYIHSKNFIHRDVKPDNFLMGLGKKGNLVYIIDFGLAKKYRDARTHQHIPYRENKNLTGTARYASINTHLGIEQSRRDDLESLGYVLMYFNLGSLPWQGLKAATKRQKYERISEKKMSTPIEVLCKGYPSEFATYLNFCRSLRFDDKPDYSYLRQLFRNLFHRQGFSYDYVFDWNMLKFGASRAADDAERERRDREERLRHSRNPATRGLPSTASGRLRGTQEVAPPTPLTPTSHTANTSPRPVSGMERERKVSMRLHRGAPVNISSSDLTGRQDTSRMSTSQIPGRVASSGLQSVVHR
Description: Thermal Shift Assay. Domain: start/stop: M1-K294
I would appreciate it if you labelled entries fulfilled when ΔTm is 0.5 °C or higher, otherwise not fulfilled.

Use these answered entries as a reference point.
[[record]]
molecule = "CO[C@@H](C)CN1CC[C@]2(C)c3cc(O)ccc3C[C@H]1C2(C)C"
group = "fulfilled"

[[record]]
molecule = "CN(C(=O)CCOCCOCCOCCOCCNc1cccc2c1C(=O)N(C1CCC(=O)NC1=O)C2=O)[C@H]1CC[C@@]2(C)[C@@H](CC[C@@H]3[C@@H]2CC[C@]2(C)[C@@H](c4ccc5ccncc5c4)CC[C@@H]32)C1 (stereo partly drawn)"
group = "not fulfilled"

[[record]]
molecule = "CCCn1cc(-c2cc(C3C(=O)N(CC)c4ccc(C(F)(F)F)cc4N(c4ccccc4)C3=O)cc(OC)c2O)cn1 (stereo not drawn)"
group = "not fulfilled"

[[record]]
molecule = "CNC(=O)c1cc(C(=O)NC2CC2)cn(Cc2ccccc2)c1=O"
group = "not fulfilled"

[[record]]
molecule = "C=CC(=O)Nc1cc(-c2nn(C3CCC(N4CCN(C(C)=O)CC4)CC3)c3ncnc(N)c23)ccc1Oc1ccccc1 (stereo not drawn)"
group = "fulfilled"


Task: Reported ΔTm reaches at least 0.5 °C for COc1ccc(OC(=O)N(CC(=O)O)Cc2ccc(OCCc3nc(-c4ccccc4)oc3C)cc2)cc1 ?
Output: fulfilled

Task: Reported ΔTm reaches at least 0.5 °C for C=CC(=O)N1CCC[C@@H](n2nc(-c3ccc(Oc4ccccc4)cc3)c3c(N)ncnc32)C1 ?
Output: fulfilled

Task: Reported ΔTm reaches at least 0.5 °C for OCC1OC(n2cnc3cc(Cl)c(Cl)cc32)C(O)C1O (stereo not drawn) ?
Output: fulfilled

Task: Reported ΔTm reaches at least 0.5 °C for CO[C@H](C)CN1CC[C@]2(C)c3cccc(O)c3C[C@H]1C2(C)C ?
Output: not fulfilled

Task: Reported ΔTm reaches at least 0.5 °C for CC[C@H]1[C@@H](O)[C@@H]2[C@H](CC[C@]3(C)[C@@H]([C@H](C)CCC(=O)O)CC[C@@H]23)[C@@]2(C)CC[C@@H](O)C[C@@H]12 ?
Output: fulfilled

---

biological target: Tyrosine-protein kinase ABL1 (Homo sapiens); details: Compound concentration 20.0 uM, Protein concentration 2.0 uM, Result type QC Liability
Description: Thermal Shift Assay. Domain: start/stop: S229-K512
Attribute: ΔTm

Consider the following illustrative entries.
[[record]]
smiles_structure = "Cc1cc(Cl)ccc1S(=O)(=O)NC[C@H]1C2CCC(CC2)[C@@H]1/C=C\\CCCC(=O)O"
tested_target = "Tyrosine-protein kinase ABL1 (Homo sapiens)"
property_label = "ΔTm"
measured_result = "-0.05 °C"

[[record]]
smiles_structure = "Clc1ccccc1C(c1ccccc1)(c1ccccc1)n1cccn1"
tested_target = "Tyrosine-protein kinase ABL1 (Homo sapiens)"
property_label = "ΔTm"
measured_result = "0.43 °C"

[[record]]
smiles_structure = "C[C@H](CCC(=O)O)[C@H]1CC[C@H]2[C@@H]3CC[C@@H]4C[C@H](O)CC[C@]4(C)[C@H]3CC[C@]12C"
tested_target = "Tyrosine-protein kinase ABL1 (Homo sapiens)"
property_label = "ΔTm"
measured_result = "-0.82 °C"

[[record]]
smiles_structure = "COc1ccc(OC(=O)N(CC(=O)O)Cc2ccc(OCCc3nc(-c4ccccc4)oc3C)cc2)cc1"
tested_target = "Tyrosine-protein kinase ABL1 (Homo sapiens)"
property_label = "ΔTm"
measured_result = "0.16 °C"


Would you kindly look at the next entry?
Record Cc1nnc2n1-c1sc(CCC(=O)N3CCOCC3)cc1C(c1ccccc1Cl)=NC2 has Tyrosine-protein kinase ABL1 (Homo sapiens) ΔTm equal to 0.15 °C

---

Attribute: ΔTm
biological target: Mitogen-activated protein kinase 1 (Homo sapiens); settings: Compound concentration 20.0 uM, Protein concentration 2.0 uM, Result type QC Liability
Description: Thermal Shift Assay. Domain: start/stop: M1-S360
Give the quantity in °C, number only.

[[record]]
molecule = "Cc1nnc2n1-c1sc3c(c1C(c1ccccc1Cl)=NC2)CC(C(=O)N1CCOCC1)C3 (configuration not stated)"
measured_result = 0.25

[[record]]
molecule = "Clc1ccccc1C(c1ccccc1)(c1ccccc1)n1cccn1"
measured_result = 0.22

[[record]]
molecule = "Cc1nnc2n1-c1sc3c(c1C(c1ccccc1Cl)=NC2)C[C@H](C(=O)N1CCOCC1)C3"
measured_result = 0.42

[[record]]
molecule = "CCCn1cc(-c2cc(C3C(=O)N(CC)c4ccc(C(F)(F)F)cc4N(c4ccccc4)C3=O)cc(OC)c2O)cn1 (configuration not stated)"
measured_result = -7.84

[[record]]
molecule = "CCOP(=O)(OCC)C(=Cc1cc(C(C)(C)C)c(O)c(C(C)(C)C)c1)P(=O)(OCC)OCC"
measured_result = 0.15


So, C[C@@H]1CC[C@@]2(OC1)O[C@H]1[C@@H](O)[C@H]3[C@@H]4CC[C@H]5C[C@@H](O[C@@H]6O[C@H](CO)[C@H](O[C@@H]7O[C@H](CO)C(O)[C@H](O[C@@H]8OC[C@@H](O)[C@H](O)[C@H]8O)[C@H]7O[C@@H]7O[C@H](CO)[C@H](O)[C@H](O[C@@H]8O[C@H](CO)[C@@H](O)[C@H](O)[C@H]8O)[C@H]7O)[C@H](O)[C@H]6O)[C@H](O)C[C@]5(C)[C@H]4CC[C@]3(C)[C@H]1[C@@H]2C (some centres not stated) ? Its ΔTm was 0.27

So, CN(C(=O)CCOCCOCCOCCOCCNc1cccc2c1C(=O)N(C1CCC(=O)NC1=O)C2=O)[C@H]1CC[C@@]2(C)[C@@H](CC[C@@H]3[C@@H]2CC[C@]2(C)[C@@H](c4ccc5ccncc5c4)CC[C@@H]32)C1 (some centres not stated) ? Its ΔTm was -1.53

---

molecular target: Cyclin-dependent kinase 2 (Homo sapiens); conditions: Compound concentration 20.0 uM, Protein concentration 2.0 uM, Result type QC Liability
Description: Thermal Shift Assay. Domain: start/stop: M1-L298
I would appreciate it if you labelled entries t when ΔTm is 0.2 °C or higher, otherwise f.

[[record]]
molecule = "O=C1CCC(N2Cc3cc(CNC(=O)C(F)(F)c4ccc(Cl)cc4)ccc3C2=O)C(=O)N1 (centres undefined)"
tested_target = "Cyclin-dependent kinase 2 (Homo sapiens)"
group = "t"

[[record]]
molecule = "C[C@]12CC[C@@H]3c4ccc(C(N)=O)cc4CC[C@H]3[C@@H]1CC=C2c1cncc(F)c1"
tested_target = "Cyclin-dependent kinase 2 (Homo sapiens)"
group = "f"

[[record]]
molecule = "CO[C@H](C)CN1CC[C@]2(C)c3cccc(O)c3C[C@H]1C2(C)C"
tested_target = "Cyclin-dependent kinase 2 (Homo sapiens)"
group = "t"

[[record]]
molecule = "COc1ccc(-n2nc(C(F)(F)F)cc2-c2ccc(Cl)cc2)cc1"
tested_target = "Cyclin-dependent kinase 2 (Homo sapiens)"
group = "t"

[[record]]
molecule = "C[C@H](CCC(=O)O)[C@H]1CC[C@H]2[C@@H]3CC[C@@H]4C[C@H](O)CC[C@]4(C)[C@H]3CC[C@]12C"
tested_target = "Cyclin-dependent kinase 2 (Homo sapiens)"
group = "f"


Task: Reported ΔTm reaches at least 0.2 °C for CCC(=O)O[C@@H](OP(=O)(CCCCc1ccccc1)CC(=O)N1C[C@H](C2CCCCC2)C[C@H]1C(=O)O)C(C)C (some centres undefined) ?
Output: t

Task: Reported ΔTm reaches at least 0.2 °C for Cc1ccc2c(N)c(C(=O)NC3CCc4cc(N5CC6CCC(C5)N6)ccc4C3)sc2n1 (centres undefined) ?
Output: f

Task: Reported ΔTm reaches at least 0.2 °C for O=C(NCCN1CCC2(CC1)C(=O)NCN2c1cccc(F)c1)c1ccc2ccccc2c1 ?
Output: f

Task: Reported ΔTm reaches at least 0.2 °C for CO[C@@H](C)CN1CC[C@]2(C)c3cc(O)ccc3C[C@H]1C2(C)C ?
Output: t

---

target: Mitogen-activated protein kinase 1 (Homo sapiens); conditions: Compound concentration 20.0 uM, Protein concentration 2.0 uM, Result type QC Liability
property label: ΔTm (°C)
Give the quantity in °C, number only.

Consider the following illustrative entries.
[[record]]
compound = "CCN(CC)CCO[C@H]1CC[C@@]2(C)C(=CC[C@@H]3[C@@H]2CC[C@]2(C)C(=O)CC[C@@H]32)C1"
property_label = "ΔTm"
measured_result = 0.35

[[record]]
compound = "COc1nc2ccc([C@@](O)(c3ccc(Cl)cc3)c3cncn3C)cc2c(Cl)c1Cc1ccc(-n2cccn2)cc1"
property_label = "ΔTm"
measured_result = -0.39

[[record]]
compound = "C=CC(=O)Nc1cc(-c2nn(C3CCC(N4CCN(C(C)=O)CC4)CC3)c3ncnc(N)c23)ccc1Oc1ccccc1 (stereo not drawn)"
property_label = "ΔTm"
measured_result = 0.34

[[record]]
compound = "N[C@H](C(=O)O)[C@@H]1CC(Cl)=NO1"
property_label = "ΔTm"
measured_result = 0.14

[[record]]
compound = "CO[C@H](C)CN1CC[C@@]2(C)c3ccc(O)cc3C[C@@H]1C2(C)C"
property_label = "ΔTm"
measured_result = 0.34


Record CNC(=O)c1cc(C(=O)NC2CC2)cn(Cc2ccccc2)c1=O has Mitogen-activated protein kinase 1 (Homo sapiens) ΔTm equal to 0.38

Record Cc1cc(Cl)ccc1S(=O)(=O)NC[C@H]1C2CCC(CC2)[C@@H]1/C=C\CCCC(=O)O has Mitogen-activated protein kinase 1 (Homo sapiens) ΔTm equal to 0.13

Record C[C@@H](CN1CC[C@@]2(C)c3cccc(O)c3C[C@@H]1C2(C)C)OCc1ccccc1 has Mitogen-activated protein kinase 1 (Homo sapiens) ΔTm equal to 0.48

Record Cc1ccc2c(N)c(C(=O)NC3CCc4cc(N5CC6CCC(C5)N6)ccc4C3)sc2n1 (stereo not drawn) has Mitogen-activated protein kinase 1 (Homo sapiens) ΔTm equal to 0.3

// provenance: ChEMBL document CHEMBL5308504
